- System: U2OS
- assay summary: Multiplex assay against U2OS
- Type: toxicity, cell-based
- experimental conditions: human, 12 h, 1 µM, compound concentration 1 uM, replicate 2
attribute measured: Population Fragmented Nuclei (%)
I only need the number, in %, no unit after it.

Check out these entries, answers already filled in.
{"columns": ["compound", "units symbol", "Population Fragmented Nuclei (%)"],
 "data": [
  ["Cc1ccc(NC(=O)Nc2cc(C(F)(F)F)ccc2F)cc1Nc1ccc2c(c1)NC(=O)/C2=C\\c1ccc[nH]1", "%", 24],
  ["Cc1c(Nc2ccc(S(=O)(=O)N3CCN(C)CC3)cc2F)nc2ccc(-c3cnn(C4CC4)c3)cn2c1=O", "%", 5],
  ["CC(/C=C1\\SC(=S)N(CCCC(=O)Nc2ccc(C(=O)O)c(O)c2)C1=O)=C\\c1ccccc1", "%", 10]
]}

Ask: API: value(readout= Population Fragmented Nuclei (%), system= U2OS, query= CC[C@@H]1C(=O)N(C)c2cnc(Nc3ccc(C(=O)NC4CCN(C)CC4)cc3OC)nc2N1C1CCCC1 [BI-2536] )
Reply: 10

Ask: API: value(readout= Population Fragmented Nuclei (%), system= U2OS, query= CC[C@H](Nc1ncnc2[nH]cnc12)c1nc2cccc(F)c2c(=O)n1-c1ccccc1 [IDELALISIB] )
Reply: 10

Ask: API: value(readout= Population Fragmented Nuclei (%), system= U2OS, query= C[C@@H](Oc1cc(-n2cnc3ccc(CN4CCN(C)CC4)cc32)sc1C(N)=O)c1ccccc1C(F)(F)F [GSK-461364] )
Reply: 12
